Test system: E. coli WT DSM-1116
Assay: MIC, microbroth dilution susceptibility assay
Assay type: cell-based
Details: Escherichia coli, DSM1116; small panel, Tables 1a/1b; no visual growth after approx. 16 h; read-out: MIC E. coli WT DSM-1116
Can you tell me MIC for the items I'm about to list?
# number only, unit µg/mL dropped from output

MIC reading for C/C(=C\c1ccc(C#N)cc1)C(=O)Nc1ccc(C(=O)N[C@@H](CC(N)=O)C(=O)Nc2ccc(C(=O)Nc3ccc(C(=O)Nc4ccc(C(=O)O)c(O)c4OC(C)C)c(O)c3OC(C)C)cc2)cc1 [Compound 124] : 0.5

MIC reading for CC(C)Oc1c(NC(=O)c2ccc(NC(=O)[C@H](CC(N)=O)NC(=O)c3ccc(NC(=O)c4ccc(N)cc4)cc3)cc2)ccc(C(=O)Nc2ccc(C(=O)O)cc2)c1O [Compound 40] : 2

MIC reading for C/C(=C\c1ccc(C#N)cc1)C(=O)Nc1ccc(C(=O)N[C@@H](CC(N)=O)C(=O)Nc2ccc(C(=O)Nc3ccc(C(=O)Nc4ccc(C(=O)O)cc4)c(O)c3OCC(C)C)cc2)cc1 [Compound 125] : 0.5
